# SYSTEM: T1, CTLA4-Fc (UniProt P16410 36-161, limits assumed)
# T1 sequence (looked up): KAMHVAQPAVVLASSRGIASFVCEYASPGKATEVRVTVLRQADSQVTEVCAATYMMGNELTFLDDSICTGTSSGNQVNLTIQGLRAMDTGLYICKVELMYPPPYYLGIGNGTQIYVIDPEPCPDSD
# ASSAY SUMMARY: cell-based or functional assay
READOUT: IC50 (nM), IL-2 secreted by Jurkat cells co-cultured with CHO/CD80 cells, Experiment 1

BINDER: MAb A2 (7G10D3) (antibody, V domains shown, also called murine antibody A2) VH: QIQLVQSGPELKKPGETVKISCKASGYTFTTYGMSWVKQTPGKGLKWMGWINTYSGVPTYADDFKGRFAFSLETSASTAYLQINNLKNEDTATYFCARGRDYYGSSYRLFGVWGTGTTVTVSS VL: DIQMTQTTSSLSASLGDRVTISCRASQDISNYLNWYQQKPDGTVKLLIYYTSILNSGVPSKFSGSGSGTDYSLTISNLEQEDIATYFCQQGNTLPWTFGGGTKLEIK
OBS VALUE: 26.4

The values you see were collected from patent US20200055937A1.
